Where these numbers come from: the supplement of paper PMC10567573

Assay: protein stability index of a GFP-peptide fusion (GPS, HEK-293T) (PSI 1-6); higher = more stable;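 also: 24-mer peptide tiles fused after GFP, lentivirally expressed, FACS-sorted into six equal bins by GFP/DsRed ratio, decoded by Illumina sequencing, PSI is the read-weighted mean bin number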
Conditions: treatment: MLN4924 1 uM, 8 h; c terminus: a fixed tail appended
MEASURED ATTRIBUTE: protein stability index
The response must contain the number and no unit.

For the sequence DFGSAAASGSFPSQVTATSGNGDF [CLINT1] , what protein stability index is on record?
4.69

For the sequence TAAASRERQEEQSAAIHISETLEQ [EPB41L3] , what protein stability index is on record?
5.4

For the sequence LDVERWLKPAMTQAQDEVEQERRL [FCHSD1] , what protein stability index is on record?
5.11

For the sequence NFLFRNAASTLTERPCYNRRASKL [ANKRD40] , what protein stability index is on record?
3.4

For the sequence MADWARAQSPGAVEEILDRENKRM [BET1L] , what protein stability index is on record?
4.75

For the sequence GSHPQQTQKLEEIKENAQDTMRQI [TOR1AIP2] , what protein stability index is on record?
5.38

----------
Test: protein stability index of a GFP-peptide fusion (GPS, HEK-293T) (PSI 1-6); higher = more stable
Details: treatment: MLN4924 1 uM, 8 h; c terminus: a fixed tail appended
Response key: 1 means protein stability index >= 4; -1 means protein stability index < 4.

Does the reported protein stability index for MMDSRTSQQLQLIDEQDSYIQSRA [STX5] fall at or above the 4 mark?
1

Does the reported protein stability index for MNNAVRNLQELLELDSSSSLCVLV [CEP70] fall at or above the 4 mark?
-1

Does the reported protein stability index for PEDLAQLEELIDMAVLEEIQQELI [RPAIN] fall at or above the 4 mark?
-1

Does the reported protein stability index for HEEVYFEPSSSKDSDENSKPSVDT [MIA2] fall at or above the 4 mark?
1

Does the reported protein stability index for NRKRECGNAHYQRADFVLAANSYD [FKBP8] fall at or above the 4 mark?
-1

----------
Assay: protein stability index of a GFP-peptide fusion (GPS, HEK-293T) (PSI 1-6); higher = more stable
Details: treatment: DMSO; c terminus: a fixed tail appended
MEASURED ATTRIBUTE: protein stability index
The response must contain the number and no unit.

For the sequence GIRLSENVIDRMKESSPSGSKSQR [CHCHD3] , what protein stability index is on record?
4.65

For the sequence MADVINVSVNLEAFSQAISAIQAL [MED27] , what protein stability index is on record?
2.38

For the sequence ALPENEFKKQIWLLFEYPESSSPA [KCNA4] , what protein stability index is on record?
2.45

For the sequence LRSCYFSDPDCSMRPTLIDLLPTF [FBXO39] , what protein stability index is on record?
2.46

For the sequence NPPKASAAPDCTPSLEAGNPAPAA [MYCL] , what protein stability index is on record?
5.34

For the sequence SQIQGLIGSVEEQLAQLRCEMEQQ [KRT16] , what protein stability index is on record?
4.39

For the sequence YAVTPLPWCPHLVAVCPIPAAGLD [HDAC6] , what protein stability index is on record?
2.99

For the sequence SCKACGYRGMLDTHHKLCTFILKN [EIF5] , what protein stability index is on record?
2.55

For the sequence NWEAPPGAFDSFLLRFGVPSPSTL [TNXB] , what protein stability index is on record?
3.06

For the sequence SGATTTAPSLSGKGNPEEEDVDTS [CTNNB1] , what protein stability index is on record?
5.61

For the sequence QIQRISLNTLTLNVKSEKVYTRHG [FLOT1] , what protein stability index is on record?
2.6

For the sequence PESDILQPVPNTTEPDYKSKDWVF [STK38L] , what protein stability index is on record?
4.45

For the sequence EVLLASLANPVLESTPVGTVVGLF [PCDHGC5] , what protein stability index is on record?
2.53

For the sequence ADIKQYIGPPSAAAIFKIYLSCLE [TRIP13] , what protein stability index is on record?
2.19

For the sequence DGNGGQFREVYVGKETMCTVDGLH [TRIM9] , what protein stability index is on record?
3.94

For the sequence LITQQIIPVLYCMVFIAGILLNGV [P2RY14] , what protein stability index is on record?
3.37

For the sequence DISERPSVDDIESETGSTGALETR [C2CD2L] , what protein stability index is on record?
5.56

For the sequence RYIVNGSHEANKLQDMLDGFIKKF [EIF5] , what protein stability index is on record?
1.98

For the sequence VRGHHPKSGEEAVTVLEDLEKGLE [ZNF232] , what protein stability index is on record?
4.73

For the sequence IPKSSDPEMRWNKGTILKASVDYI [TFE3] , what protein stability index is on record?
2.79

For the sequence FSGSLVAALSATGPRFLAYFGSFA [TMEM175] , what protein stability index is on record?
2.91

For the sequence KPKKKKEKKEKEKKKKDKEKEKEK [BRD3] , what protein stability index is on record?
5.26

For the sequence GSCGQGRTIRHVYCKTSDGRVVPE [ADAMTSL2] , what protein stability index is on record?
3.66

For the sequence NEDPLVLLAWRCTKLSLLAIHGYT [FBXO33] , what protein stability index is on record?
3.05

For the sequence GLAGFFASVAMICAIASGSELSES [SLC29A1] , what protein stability index is on record?
3

For the sequence FPRDAVQIEEVFISEEIQMSTKES [MIA2] , what protein stability index is on record?
4.56

For the sequence PQDRYKAVWLIFFMLGLGTLLPWN [SLC29A1] , what protein stability index is on record?
3

----------
Test: protein stability index of a GFP-peptide fusion (GPS, HEK-293T) (PSI 1-6); higher = more stable
Conditions: treatment: MLN4924 1 uM, 8 h; c terminus: a fixed tail appended
Give measured protein stability index for each item. Keep answers brief.
The response must contain the number and no unit.

For the sequence QKITAIITFPSLESCEEKNQLILT [WDR41] , what protein stability index is on record?
2.22

For the sequence LASLGASEEAVQKLATCYFFTVEF [TPH1] , what protein stability index is on record?
2.73

For the sequence GRHAQTVETLLRHGAHINLQSLKF [RIPK4] , what protein stability index is on record?
2.65

For the sequence WAANAGVTASPPTDLIWKNQNSWG [LMNB1] , what protein stability index is on record?
2.48

For the sequence SGGYGQDALGMDPMMEHEMGGHHP [CTNNB1] , what protein stability index is on record?
4.69

For the sequence TTTSAATATTAPPALDIFGDLFES [SNAP91] , what protein stability index is on record?
4.68

For the sequence QLSRDSTLGGKAFHITNDEPIPFW [NSDHL] , what protein stability index is on record?
3.07

----------
Test: protein stability index of a GFP-peptide fusion (GPS, HEK-293T) (PSI 1-6); higher = more stable
Conditions: treatment: MLN4924 1 uM, 8 h; c terminus: a fixed tail appended
MEASURED ATTRIBUTE: protein stability index
The response must contain the number and no unit.

For the sequence PQAPPASRDEAALPELLLGALPVG [RETREG3] , what protein stability index is on record?
4.67

For the sequence IATATEIAYYSYIYSVVDLGMYQK [SLC19A2] , what protein stability index is on record?
2.94

For the sequence VPGHQTPSDLDQFSDSSLIEDSQA [LURAP1L] , what protein stability index is on record?
5.41

For the sequence INKIAGHPLAQNERCLHMFLQEEA [SNX12] , what protein stability index is on record?
3.3

For the sequence QDGVSCLNIVERYDPKENKWTRVA [KLHL20] , what protein stability index is on record?
4.08

For the sequence YAVTPLPWCPHLVAVCPIPAAGLD [HDAC6] , what protein stability index is on record?
2.33

For the sequence GQFVMKTRRTLKGHGNKVLCMDWC [GNB5] , what protein stability index is on record?
2.32

For the sequence ERPERRSGPPASYCAKLCEPQWFY [C8orf76] , what protein stability index is on record?
2.54

For the sequence LAIQARKRRPKREKHPKKPEPQQK [SRPK2] , what protein stability index is on record?
4.59

For the sequence TDIDIDTLCAVLERDTLSIRESRL [BTBD1] , what protein stability index is on record?
3.15

For the sequence GAHSNAPITAHAEVEVVEEAKCCC [CSNK1G1] , what protein stability index is on record?
5.23

For the sequence QQKKDLEILHQQNIHQLQNRLSEL [SASS6] , what protein stability index is on record?
4.13

For the sequence ATGMFLQYTVPGTEGVTQLKLTVV [ZFYVE21] , what protein stability index is on record?
2.9

For the sequence LEDLKDQIAQLEASLAAAKKQLAD [LMNB1] , what protein stability index is on record?
5.21

For the sequence NLLPAAGELQESGLALCPEVQDLL [SMG5] , what protein stability index is on record?
4.31

For the sequence LPGACNIPANVSNCNWFCEGSFNG [KRT33B] , what protein stability index is on record?
2.36

For the sequence LLNLVDHTEVVRDLTFAPDGSLIL [WSB1] , what protein stability index is on record?
2.16

For the sequence RAFVSIQEEMAEDPLTYKSRLMVV [RHOBTB2] , what protein stability index is on record?
2.18

For the sequence GLAGFFASVAMICAIASGSELSES [SLC29A1] , what protein stability index is on record?
2.9

For the sequence MGSASPGLSSVSPSHLLLPPDTVS [SPDEF] , what protein stability index is on record?
4.2

For the sequence PPVLSFRLVHTTAIEHFQPNADLL [FCHO1] , what protein stability index is on record?
2.17

For the sequence EAAGVQIQMVNESLGYVRSQFLKL [CD207] , what protein stability index is on record?
2.3

For the sequence ERYMCSRFFIDFPHIEEQQKKIES [TENT5D] , what protein stability index is on record?
3.23

For the sequence PGSASLAQSRLEDPGQDLVPKQAI [DLX1] , what protein stability index is on record?
5

For the sequence MNLELLESFGQNYPEEADGTLDCI [RBBP5] , what protein stability index is on record?
4.89

For the sequence QILLEWCRSKTLGYQHVDLQNFSS [SMTNL2] , what protein stability index is on record?
2.49

For the sequence QKRQQLSEDTLTIHGLPTEGYQAL [C22orf31] , what protein stability index is on record?
3.92

For the sequence MWKFVSPLCMAVLTTASIIQLGVT [SLC6A17] , what protein stability index is on record?
2.87

For the sequence HPKDGPSPGGTLMDLSERQEVSSV [DLC1] , what protein stability index is on record?
5.23

For the sequence LDSCNSLTPKSTPVKTLPFSPSQF [MYBL2] , what protein stability index is on record?
3.37

For the sequence SMTAGVSEREANDALNAYVCKGLP [INTS3] , what protein stability index is on record?
4.38

For the sequence LKTGNSSPGIGAVYLANQAKNQSD [RTP4] , what protein stability index is on record?
3.97

For the sequence VQFHRHHGQEGSILVTKVEEPSKY [GMPPB] , what protein stability index is on record?
3.58

For the sequence PQEKLWQQLRRGRYVEFNLLYDRG [CPOX] , what protein stability index is on record?
2.55

For the sequence GIKAQVALRLAELARRRRRRQARR [NOP53] , what protein stability index is on record?
3.85

For the sequence FSGSLVAALSATGPRFLAYFGSFA [TMEM175] , what protein stability index is on record?
2.61

For the sequence IDKSMTVVLTFITPMLNPLIYTLK [OR4A15] , what protein stability index is on record?
2.8

For the sequence CGSFQVTTGLQVPSAVRCLQKRGS [FSD1] , what protein stability index is on record?
2.8

For the sequence IVNSTEESDDAFDTVTIPVPSEEP [IQUB] , what protein stability index is on record?
5.55

For the sequence FRPKDQTSVGMSFVAGGISGTVAA [SLC25A39] , what protein stability index is on record?
2.96

For the sequence MSLEPQNGTYAGPAPAFQPFFFTG [ANKRD40] , what protein stability index is on record?
2.15

For the sequence ILVQTPESESPQSHRAAGSGVSDY [TRIM9] , what protein stability index is on record?
4.49

For the sequence LARVPKLDLKRQYDRVAQLDQLLH [CHGB] , what protein stability index is on record?
2.48

For the sequence RCACAASSDESPGSKCSPEDLATA [TTC32] , what protein stability index is on record?
4.08

For the sequence SGLDDFFLDIDTSAVEKEPARAPP [SERTAD3] , what protein stability index is on record?
4.75

For the sequence TSYTRQACLVSCFQQLMVETCSCG [SCNN1D] , what protein stability index is on record?
2.31

For the sequence KQNKTPLDKSTTGVSEILLKTQMK [FEM1B] , what protein stability index is on record?
4.2

For the sequence SKVIEILDSQTEIYQYVQNSMAPH [DLC1] , what protein stability index is on record?
2.71

For the sequence VLGGFLYAVGGSDGTSPLNTVERY [KLHL20] , what protein stability index is on record?
2.47

For the sequence GKTDDTLALLNLACMMTITFLPYT [TMEM175] , what protein stability index is on record?
3.08

For the sequence RCSSMHFLVAEWNEPSINFYKRRG [SAT1] , what protein stability index is on record?
2.42

For the sequence MSCRDRTQEFLSACKSLQTRQNGI [STX5] , what protein stability index is on record?
3.1

For the sequence CMYEHGEDTHQSPEPEDEPGGPGA [RSPH3] , what protein stability index is on record?
5.51
